The measurements presented in this section are drawn from PubChem BioAssay (NCI).

test_protocol: NCI Yeast Anticancer Drug Screen. Data for the sgs1 mgt1 strain (AID 161);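 also: 0% = growth of cultures given vehicle only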
experimental_setup: S. cerevisiae sgs1 mgt1 strain, at 50.0 µM, stronger effect = higher value
The panel holds about 79,000 compounds, 15% with a hit somewhere; the sample as a whole holds those more often. Where a SMILES comes first, the peptide text is derived from it.
quantity_kind: growth inhibition (%)

CCOC(=O)c1ccc(CSc2ccc(OC)cc2)cc1 ... 86.4
O=C(O)C(=C\c1ccccc1)/C(=C\c1ccccc1)C(=O)OCc1ccccc1 ... 19.9
C=CCOC(=O)c1ccccc1O ... -13.3
CCC1(CCC(C)C)C(=O)NC(=Nc2ccccc2)N(c2ccccc2)C1=O (stereo not given) ... -0.65
N#CC(C#N)=CNC(=S)Nc1ccc(S(=O)(=O)Nc2nccs2)cc1 ... -13.4
Nc1nc2c(c(-c3ccc(F)cc3)n1)COC/C2=C\c1ccc(F)cc1 ... 15.2
COc1cc(C)nc2ccc(Cc3ccc4nc(C)cc(OC)c4c3)cc12 ... -3
Cc1cccc[n+]1CC(=O)c1ccccc1 ... 34.5
Cc1cc2c(c(C(=O)NCC(=O)O)c1)Oc1c(cc(C)cc1C(=O)NCC(=O)O)S2 ... -4.95
CCOc1cc2c(cc1O)C(O)C[C@@H]1[C@@H]2CC[C@]2(C)[C@@H](O)CC[C@@H]12 (stereo not given in full) ... 22.7
NC(Cc1cnc[nH]1)C(=O)NC(Cc1ccc(O)cc1)C(=O)O (stereo not drawn) (H-His-Tyr-OH; configuration not given here) ... 7.2
Cc1nn(C)c2c1C(=O)N(C)CC(=O)N2C ... -22.9
CN(CCSSCCN(C)/N=C/c1ccccc1)/N=C/c1ccccc1 ... -26.7
O=c1[nH]c(-c2ccccc2)nc2[nH]ncc12 ... 23.1
CCOc1ccc2c(c1)nc1ccccc1[n+]2C ... 22

----------
test_protocol: NCI Yeast Anticancer Drug Screen. Data for the mlh1 rad18 strain (AID 175)
experimental_setup: S. cerevisiae mlh1 rad18 strain growth inhibition; at 50.0 µM
Compounds without any hit were thinned out: in the full panel of roughly 79,000, 15% have a hit. The source made the active and inactive calls. Rule as the data show it: active = growth inhibition above about 70%; inactive = the rest.
Classes used: T = active, F = inactive

ClC[P+](c1ccccc1)(c1ccccc1)c1ccccc1 ... F
O/N=C1/C(=C/c2ccc(Br)cc2)CCCC1C(NO)c1ccc(Br)cc1 (stereo not drawn) ... F
Cc1ccsc1/C=N/Nc1nc2ccccc2s1 ... F
COc1ccc2c(c1O)C1(CCN(C)C)CC(=O)CCC1C=C2 (stereo not drawn) ... F
COc1ccc(-c2cc3cc(Cl)cc(Cl)c3oc2=O)cc1OC ... F
[O-][n+]1cc(N=Nc2ccc(Cl)cc2)nn1-c1ccc(Cl)cc1 ... F
COc1ccc(C2NC(C(=O)O)Cc3c2[nH]c2ccccc32)cc1OC (stereo not drawn) ... F
Cc1cc(Cl)c(Cl)cc1NC(=O)c1c(Br)c(Br)c(Br)c(Br)c1C(=O)O ... F
CN(CCSSCCN(C)/N=C/c1ccccc1)/N=C/c1ccccc1 ... F
O=C(CC(O)(C(F)(F)F)C(F)(F)F)c1ccc(Cl)c([N+](=O)[O-])c1 ... T
COc1ccc(C(=O)CC(=O)CCC(=O)Nc2cc(C)ccc2C)cc1 ... F
CCC(CCC(=O)O)C1CCCCC1 (stereo not drawn) ... F
CC(C)CCCC(C)C1CCC2C3CC=C4CC(OCCC(C)C)CCC4(C)C3CCC12C (stereo not drawn) ... T
CCOC(=O)c1cc(C)nc(Cl)c1[N+](=O)[O-] ... F
NC(=O)CNC(=O)C(CO)NC(=O)OCc1ccccc1 (stereo not drawn) ... F
O=C(CC(=O)n1nc(-c2ccccc2)c(N=Nc2ccc(Cl)cc2)c1-c1ccccc1)Nc1ccc(Cl)cc1 ... F
CC(C)(C)NC(=O)NCc1ccc(Cl)cc1 ... F
CC1C2(C)OCC(C#N)(C(=N)O2)C1(C#N)C#N (stereo not drawn) ... F
COc1cc2ccnc([C@@H](OC(=O)c3ccccc3)c3ccc(OC)c(OC)c3OC)c2cc1OC ... F
COc1ccc2nccc(/C=C/CC3CCN(C(C)=O)CC3)c2c1 ... T
C/C(=N\N=C(N)N)c1sc(-c2nc(C)c(/C(C)=N/N=C(N)N)s2)nc1C ... F
CCC(C)C(=O)c1c(O)c(C/C=C(\C)CCC=C(C)C)c(O)c2c(C(O)CC)cc(=O)oc12 (stereo not drawn) ... F
CCOC(=O)COc1cc2c(cc1Cc1ccc3c(c1)OCO3)OCO2 ... F
Cc1csc2nc(-c3ccccc3)[nH]c(=S)c12 ... F
Cn1c(=O)c2ncn(CC(O)COc3ccccc3)c2n(C)c1=O (stereo not drawn) ... F
O=c1[nH]c(N2CCN(c3ccccc3)CC2)nc2cc3ccccc3cc12 ... F
CCCc1cc(=O)oc2c(C=O)c(O)cc(O)c12 ... F
CCOC(=O)C1C(=O)N(O)c2cnccc21 (stereo not drawn) ... F
CNC(=O)c1n[nH]c(=S)[nH]c1=O ... F
CC1c2c(ccc3ccccc23)CCC1CC1CCCc2ccc3ccccc3c21 (stereo not drawn) ... F
CCCCCCn1ncc(=O)[nH]c1=O ... F
S=c1sc2ccccc2n1CN1CCCC1 ... F
NC(CCCCN=Cc1nc(-c2ccccc2)oc1O)C(=O)O (stereo not drawn) ... F
